test: in vitro; details: human, hTERT-BJ cells
Description: Antiproliferative activity against human hTERT-BJ cells after 48 hrs by SRB assay
QUANTITY_NAME: log10 of GI50 at 48 h (log10 of the value in nM)
Use the decimal logarithm of GI50 at 48 h (nM).

> print(dat)
                                   molecule  result.value
1  c1ccc2c(NCCCCCSSCCCCCNc3c4c(nc5ccccc35)CCCC4)c3c(nc2c1)CCCC3          3.15
2  c1ccc2c(NCCCCCCSSCCCCCCNc3c4c(nc5ccccc35)CCCC4)c3c(nc2c1)CCCC3          2.34
3  c1ccc2c(NCCCCCC[Se][Se]CCCCCCNc3c4c(nc5ccccc35)CCCC4)c3c(nc2c1)CCCC3          2.38

Hi! Can you tell me log10 of GI50 at 48 h for each of these molecules?
1. c1ccc([Se]CCCCCCNc2c3c(nc4ccccc24)CCCC3)cc1
2. O=c1[nH]cc(F)c(=O)[nH]1 [FLUOROURACIL]
3. N#C[Se]CCCCCNc1c2c(nc3ccccc13)CCCC2

Ans.
3.38
3.74
2.56

----------
biological target: Cholinesterase (Equus caballus, UniProt P81908); test: Mixed-type inhibition of equine serum BuChE assessed as enzyme-substrate-inhibitor complex using p-nitrophenyl butyrate as substrate by Lineweaver-Burk plot analysis
Sequence (P81908 whole entry): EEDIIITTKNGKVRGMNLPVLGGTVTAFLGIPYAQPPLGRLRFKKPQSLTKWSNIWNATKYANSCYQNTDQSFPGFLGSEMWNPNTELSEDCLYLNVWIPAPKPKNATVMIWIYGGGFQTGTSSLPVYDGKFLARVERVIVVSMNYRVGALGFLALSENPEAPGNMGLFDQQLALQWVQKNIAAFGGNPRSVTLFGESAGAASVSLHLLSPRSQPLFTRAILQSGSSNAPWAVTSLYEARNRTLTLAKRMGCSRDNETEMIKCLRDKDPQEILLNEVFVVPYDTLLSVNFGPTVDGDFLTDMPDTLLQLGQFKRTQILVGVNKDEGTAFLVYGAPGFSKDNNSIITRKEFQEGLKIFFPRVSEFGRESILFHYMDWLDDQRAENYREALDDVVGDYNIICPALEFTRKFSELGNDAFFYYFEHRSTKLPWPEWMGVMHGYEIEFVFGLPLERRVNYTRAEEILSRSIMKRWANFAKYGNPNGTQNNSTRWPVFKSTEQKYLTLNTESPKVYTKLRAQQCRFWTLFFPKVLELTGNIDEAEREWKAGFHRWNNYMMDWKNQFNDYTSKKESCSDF
QUANTITY_NAME: pKi
Numbers only, as −log10 of the molar value.

> print(dat)
                              smiles.record  result.value
1         N#CSCCCCCCNc1c2c(nc3ccccc13)CCCC2          6.17
2  c1ccc2c(NCCCCCSSCCCCCNc3c4c(nc5ccccc35)CCCC4)c3c(nc2c1)CCCC3          6.37
3  c1ccc2c(NCCCCCCSSCCCCCCNc3c4c(nc5ccccc35)CCCC4)c3c(nc2c1)CCCC3          7.15
4  O=C(C[Se]c1ccccc1)Nc1c2c(nc3ccccc13)CCCC2          5.77

response.value for `c1ccc2c(NCCCCCC[Se][Se]CCCCCCNc3c4c(nc5ccccc35)CCCC4)c3c(nc2c1)CCCC3` (field: pKi) = 7.13

----------
assay: Selectivity index, ratio of GI50 for human hTERT-BJ cells to GI50 for human WiDr cells; format: toxicity; conditions: hTERT-BJ cells versus WiDr cells, read-out: RatioGI50
Exercise: state measured selectivity ratio for each of the molecules provided.

> print(dat)
                              smiles.record  result.value
1  c1ccc2c(NCCCCCSSCCCCCNc3c4c(nc5ccccc35)CCCC4)c3c(nc2c1)CCCC3         ≤ 4.7

response.value for `c1ccc([Se]CCCCCCNc2c3c(nc4ccccc24)CCCC3)cc1` (field: selectivity ratio) = ≤ 4.7

----------
Exercise: state measured Ki for each of the compounds provided.
biological target: Acetylcholinesterase (Electrophorus electricus); assay: Mixed-type inhibition of electric eel AChE assessed as enzyme-inhibitor complex using p-nitrophenyl acetate as substrate by Lineweaver-Burk plot analysis
Sequence (O42275 whole entry): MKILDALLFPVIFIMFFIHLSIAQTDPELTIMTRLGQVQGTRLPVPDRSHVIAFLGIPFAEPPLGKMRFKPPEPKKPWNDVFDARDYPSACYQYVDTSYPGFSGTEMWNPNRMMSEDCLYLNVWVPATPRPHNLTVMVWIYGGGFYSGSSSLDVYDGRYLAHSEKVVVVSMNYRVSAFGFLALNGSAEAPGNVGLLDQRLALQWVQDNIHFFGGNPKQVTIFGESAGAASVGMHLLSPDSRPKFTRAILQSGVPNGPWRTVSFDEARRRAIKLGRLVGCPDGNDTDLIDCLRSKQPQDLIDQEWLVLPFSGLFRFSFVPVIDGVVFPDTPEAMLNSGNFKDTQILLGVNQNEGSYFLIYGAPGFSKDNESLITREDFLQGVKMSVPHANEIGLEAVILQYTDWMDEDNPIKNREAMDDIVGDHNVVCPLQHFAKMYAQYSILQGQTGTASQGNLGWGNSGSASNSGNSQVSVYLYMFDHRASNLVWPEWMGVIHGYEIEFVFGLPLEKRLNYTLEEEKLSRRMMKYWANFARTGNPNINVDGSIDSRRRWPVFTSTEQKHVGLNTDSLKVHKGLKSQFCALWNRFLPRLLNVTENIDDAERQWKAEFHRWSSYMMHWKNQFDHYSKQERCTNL
Give bare numbers, in µM.

> print(dat)
                              smiles.record  result.value
1  O=C(C[Se]c1ccccc1)Nc1c2c(nc3ccccc13)CCCC2          8.42

Pending compound:
Log: Acetylcholinesterase (Electrophorus electricus), compound `c1ccc2c(NCCCCCSSCCCCCNc3c4c(nc5ccccc35)CCCC4)c3c(nc2c1)CCCC3` , Ki = 0.0031
